TESTED ON: TRKA (Homo sapiens (Human), UniProt P04629)
Sequence (P04629 441-796): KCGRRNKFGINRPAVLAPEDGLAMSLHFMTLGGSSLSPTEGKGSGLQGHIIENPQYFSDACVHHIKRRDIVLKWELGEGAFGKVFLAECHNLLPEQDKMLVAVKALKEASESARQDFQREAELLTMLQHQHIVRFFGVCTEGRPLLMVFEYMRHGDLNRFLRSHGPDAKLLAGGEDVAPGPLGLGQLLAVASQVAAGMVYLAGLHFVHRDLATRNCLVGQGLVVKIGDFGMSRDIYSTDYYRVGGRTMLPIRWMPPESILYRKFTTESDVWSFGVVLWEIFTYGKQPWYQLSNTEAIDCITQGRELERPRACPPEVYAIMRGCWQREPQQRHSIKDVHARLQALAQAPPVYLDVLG
ASSAY DETAILS: Isolated TRK enzyme assay (HTRF KinEASE-TK), PV3144 TrkA enzyme assay
REPORTED CONDITIONS: arithmetic mean where more than one reading
ASSAY ENDPOINT: pIC50
Hey, just a heads up that pIC50 is the negative log base 10 of the concentration in molar.

Examples from the recorded data:
| MOLECULE | ASSAY ENDPOINT | MEASURED RESULT |
| --- | --- | --- |
| CC(C)n1cc(C(=O)c2cc(NC(=O)Cc3ccc(Cl)cc3)ccn2)c2cncc(F)c21 | pIC50 | 7.63 |
| O=C(Cc1nc(C2CC2)oc1C1CC1)Nc1cc(C(=O)c2cn(C3COC3)c3ccncc23)ccn1 | pIC50 | 6.36 |
| O=C(Nc1cc(C(=O)c2cn(CCO)c3ccncc23)ccn1)c1cccc(OC(F)(F)F)c1 | pIC50 | 7.52 |
| CC(C)n1cc(C(=O)c2cncc(NC(=O)Cn3cc(C(F)(F)F)nn3)c2)c2cnccc21 | pIC50 | 6.83 |
| Cc1cn(CC(=O)Nc2cncc(C(=O)c3cn(C(C)C)c4ccncc34)c2)nn1 | pIC50 | 6.30 |
| CC(CO)n1cc(C(=O)c2cncc(NC(=O)Cc3cccc(C(F)(F)F)c3)c2)c2cncc(F)c21 (single isomer, unassigned) | pIC50 | 7.95 |

Let's switch to this molecule now.
Record `Cc1cc(C(F)(F)F)nn1CC(=O)Nc1cncc(C(=O)c2cn(C(C)(C)CO)c3c(F)cncc23)c1` . Reported pIC50: 8.20
